src = paper PMC5832863

- TARGET UNDER TEST: T1, Streptococcus pyogenes Cas9 (a.a. 1-1368) (S. pyogenes, UniProt Q99ZW2 1-1368)
- T1 construct: Cas9 RNA-guided endonuclease of Streptococcus pyogenes, residues 1-1368, synthetic gene in pET28b; the two states are told apart by the assay; also called SpyCas9; apo-SpyCas9; source: E. coli BL21(DE3), purified (HisTrap HP, HiTrap SP, Superdex200)
- T1 sequence (Q99ZW2 whole entry, the tested form may be a part): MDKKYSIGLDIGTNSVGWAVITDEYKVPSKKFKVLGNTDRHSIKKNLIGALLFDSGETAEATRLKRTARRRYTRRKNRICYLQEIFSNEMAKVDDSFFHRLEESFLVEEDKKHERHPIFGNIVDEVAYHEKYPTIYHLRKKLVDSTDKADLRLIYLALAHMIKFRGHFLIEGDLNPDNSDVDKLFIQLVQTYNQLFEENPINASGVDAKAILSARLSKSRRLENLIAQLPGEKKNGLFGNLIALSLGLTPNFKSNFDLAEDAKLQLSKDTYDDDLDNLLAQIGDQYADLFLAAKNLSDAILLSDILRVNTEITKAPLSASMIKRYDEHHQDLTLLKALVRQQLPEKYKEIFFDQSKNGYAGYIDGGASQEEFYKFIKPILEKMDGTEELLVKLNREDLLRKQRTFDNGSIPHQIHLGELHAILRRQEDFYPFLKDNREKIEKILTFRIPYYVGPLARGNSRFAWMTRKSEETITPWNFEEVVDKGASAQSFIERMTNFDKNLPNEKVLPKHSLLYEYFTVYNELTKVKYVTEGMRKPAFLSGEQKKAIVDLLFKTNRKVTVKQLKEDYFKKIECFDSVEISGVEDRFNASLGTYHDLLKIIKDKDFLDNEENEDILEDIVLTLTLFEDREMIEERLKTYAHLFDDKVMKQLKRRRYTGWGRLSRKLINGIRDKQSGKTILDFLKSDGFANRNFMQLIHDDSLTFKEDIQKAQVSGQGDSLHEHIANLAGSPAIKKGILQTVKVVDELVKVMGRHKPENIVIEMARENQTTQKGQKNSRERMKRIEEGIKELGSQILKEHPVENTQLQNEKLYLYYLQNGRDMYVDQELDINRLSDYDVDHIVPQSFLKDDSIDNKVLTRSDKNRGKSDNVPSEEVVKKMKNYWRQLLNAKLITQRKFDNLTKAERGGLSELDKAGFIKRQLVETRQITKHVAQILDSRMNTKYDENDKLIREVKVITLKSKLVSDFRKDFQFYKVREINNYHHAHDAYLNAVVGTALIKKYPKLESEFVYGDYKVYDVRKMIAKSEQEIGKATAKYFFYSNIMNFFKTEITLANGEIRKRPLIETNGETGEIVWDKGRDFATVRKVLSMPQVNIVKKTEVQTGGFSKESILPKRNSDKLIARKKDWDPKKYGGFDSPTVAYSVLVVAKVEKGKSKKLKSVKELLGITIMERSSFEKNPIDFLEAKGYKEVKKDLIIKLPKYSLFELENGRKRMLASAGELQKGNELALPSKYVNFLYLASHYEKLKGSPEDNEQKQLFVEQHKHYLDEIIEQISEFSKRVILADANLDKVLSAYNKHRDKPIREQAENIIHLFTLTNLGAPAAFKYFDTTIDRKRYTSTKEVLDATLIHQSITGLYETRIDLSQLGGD
- METHOD: ITC; sgRNA-bound SpyCas9 titrated with AcrIIA4; 25 °C; one-site binding model
- ASSAY SETUP: both partners purified
QUANTITY MEASURED: Kd (nM)

BINDER	MEASUREMENT UNIT	RECORDED MEASUREMENT
Listeria monocytogenes anti-CRISPR protein AcrIIA4 (a.a. 1-87) (natural protein, Listeria monocytogenes (prophage), UniProt A0A247D711 1-87, looked up, AcrIIA4, anti-CRISPR protein encoded by Listeria monocytogenes prophages, residues 1-87, synthetic gene; Cloned into a modified pBT7-N-His vector; also called 15N-AcrIIA4; 13C,15N-AcrIIA4; source: E. coli BL21star(DE3), purified (HisTrap, TEV cleavage, Superdex 75, MonoQ); not shown: His6, N-terminal, cleaved) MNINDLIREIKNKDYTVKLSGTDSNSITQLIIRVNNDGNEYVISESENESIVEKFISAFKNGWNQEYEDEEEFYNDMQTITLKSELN	nM	0.6
